# Tested on: stress-induced gastric ulcers
# assay-remarks: Inhibition of stress-induced gastric ulcers in rats (Takagi-Okabe method)
# Format: in vivo, rat
# condition-description: anti-ulcer; subcutaneously; PGE2 = 1 (conventional value)
observable: Potency Ratio (Fiducial Limits For P=0.05)

{"molecule": "CCCC[C@H](C)[C@H](O)/C=C/[C@H]1[C@H](O)CC(=O)[C@@H]1C/C=C\\CCCC(=O)O [16S-methyl-PGE2, reference compound]", "assay-result": "12.8(9.0-17.9)"}
{"molecule": "CCCC[C@@H](C)[C@@H](O)C#C[C@H]1[C@H](O)CC(=O)[C@@H]1C/C=C\\CCCC(=O)O [16R-methyl-13,14-dehydro-15-epi-PGE2]", "assay-result": "7.4(4.8-11.1)"}
{"molecule": "CCCC[C@H](C)[C@@H](O)C#C[C@H]1[C@H](O)CC(=O)[C@@H]1C/C=C\\CCCC(=O)O [16S-methyl-13,14-dehydro-15-epi-PGE2]", "assay-result": "2.9(1.9-4.5)"}
{"molecule": "CCCC[C@@H](C)[C@H](O)C#C[C@H]1[C@H](O)CC(=O)[C@@H]1C/C=C\\CCCC(=O)O [16R-methyl-13,14-dehydro-PGE2]", "assay-result": "43.1(28.4-64.6)"}
{"molecule": "CCCCC[C@H](O)C#C[C@H]1[C@H](O)CC(=O)[C@@H]1C/C=C\\CCCC(=O)O [13,14-dehydro-PGE2, reference compound]", "assay-result": "4.9(2.4-9.6)"}
{"molecule": "CCCCC(C)[C@H](O)C#C[C@H]1[C@H](O)CC(=O)[C@@H]1C/C=C\\CCCC(=O)O (stereo partly drawn) [16(S,R)-methyl-13,14-dehydro-PGE2, reference compound]", "assay-result": "30.8(20.4-44.2)"}
{"molecule": "CCCC[C@H](C)[C@H](O)C#C[C@H]1[C@H](O)CC(=O)[C@@H]1C/C=C\\CCCC(=O)O [16S-methyl-13,14-dehydro-PGE2]", "assay-result": "69.8(46.4-105.2)"}
